Hello, the source for this data is patent US20190270826A1, in case you need it.

Exercise: for every item that follows, state its recorded Kd.
Biological target: T1, recombinant human IL1RAP ECD (human, UniProt Q9NPH3 21-367)
T1 construct: His-tagged; also called hIL1RAP-ECD; rhuIL1RAP
T1 sequence: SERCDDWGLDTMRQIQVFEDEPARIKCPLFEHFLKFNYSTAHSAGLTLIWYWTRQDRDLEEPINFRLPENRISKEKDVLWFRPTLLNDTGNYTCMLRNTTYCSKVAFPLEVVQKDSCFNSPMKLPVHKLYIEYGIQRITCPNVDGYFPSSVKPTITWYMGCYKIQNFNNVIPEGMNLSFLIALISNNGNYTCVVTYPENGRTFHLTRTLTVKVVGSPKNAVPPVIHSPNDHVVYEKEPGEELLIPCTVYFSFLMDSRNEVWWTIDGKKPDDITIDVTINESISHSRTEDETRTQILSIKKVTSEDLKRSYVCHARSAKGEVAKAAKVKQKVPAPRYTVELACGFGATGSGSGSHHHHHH
Assay: SPR, summary
Report the value in nM with no unit label.

Would you kindly share the measured Kd for IAPB65 (antibody, human IgG4 S228P, kappa, F234A L235A, V domains shown, IgG4-PAA; whole chains; also called IAPB4-HC-G103A; IgG4-PAA, B4 mutant) VH: QVQLVQSGAEVKKPGSSVKVSCKASGGTFSSYAISWVRQAPGQGLEWMGGISAIFGTANYAQKFQGRVTITADESTSTAYMELSSLRSEDTAVYYCARHLHNAIHLDYWGQGTLVTVSS VL: EIVLTQSPATLSLSPGERATLSCRASQSVSNFLAWYQQKPGQAPRLLIYGASNRATGIPARFSGSGSGTDFTLTISSLEPEDFAVYYCQQGKHWPWTFGQGTKVEIKR ?
10.4

Please give the result for IAPB55 (antibody, human IgG4 S228P, kappa, F234A L235A, V domains shown, IgG4-PAA; whole chains) VH: QLQLQESGPGLVKPSETLSLTCTVSGVSISSSTYYWGWLRQPPGMGLEWTGSIYFTGNTYYNPSLKSRVTISVDTSRNQFSLKLSSVTAADTAVYYCGSLFGDYGYFDYWGQGTLVTVSS VL: EIVMTQSPATLSVSPGERATLSCRASQFISSNLAWYQQKPGQAPRLLIYGASTRATGIPARFSGSGSGTDFTLTISSLQSEDFAVYYCQQYNNWPFTFGPGTKVDIKR too.
1.64
